assay_target: human NPR1 (Homo sapiens, UniProt P16066)
Construct: host or cells: CHO-K1
Sequence (P16066 33-1061): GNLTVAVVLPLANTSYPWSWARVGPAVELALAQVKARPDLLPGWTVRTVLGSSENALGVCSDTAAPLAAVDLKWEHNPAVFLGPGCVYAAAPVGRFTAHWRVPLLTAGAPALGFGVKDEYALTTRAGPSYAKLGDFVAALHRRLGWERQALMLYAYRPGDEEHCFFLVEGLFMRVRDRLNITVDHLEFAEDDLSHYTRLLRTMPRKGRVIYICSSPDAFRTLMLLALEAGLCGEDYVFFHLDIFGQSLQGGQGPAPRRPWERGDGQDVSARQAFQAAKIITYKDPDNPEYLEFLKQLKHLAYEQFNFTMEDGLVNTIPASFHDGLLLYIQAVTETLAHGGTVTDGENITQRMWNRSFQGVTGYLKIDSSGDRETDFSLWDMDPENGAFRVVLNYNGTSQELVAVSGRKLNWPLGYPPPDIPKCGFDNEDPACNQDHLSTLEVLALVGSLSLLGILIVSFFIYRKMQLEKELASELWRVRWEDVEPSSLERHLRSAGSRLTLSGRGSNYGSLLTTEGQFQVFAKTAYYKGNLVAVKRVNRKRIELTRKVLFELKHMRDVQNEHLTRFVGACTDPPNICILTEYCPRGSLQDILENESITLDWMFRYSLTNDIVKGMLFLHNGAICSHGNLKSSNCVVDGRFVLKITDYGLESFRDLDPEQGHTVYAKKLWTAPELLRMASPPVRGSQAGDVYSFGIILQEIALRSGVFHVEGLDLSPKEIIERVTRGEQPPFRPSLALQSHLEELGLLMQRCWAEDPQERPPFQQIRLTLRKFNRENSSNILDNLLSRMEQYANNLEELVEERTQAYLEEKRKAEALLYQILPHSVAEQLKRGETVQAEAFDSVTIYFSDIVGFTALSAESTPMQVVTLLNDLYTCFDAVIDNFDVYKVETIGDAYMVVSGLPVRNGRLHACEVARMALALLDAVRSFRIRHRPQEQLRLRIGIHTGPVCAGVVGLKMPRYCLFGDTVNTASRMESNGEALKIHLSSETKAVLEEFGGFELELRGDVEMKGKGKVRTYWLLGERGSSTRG
method_notes: Cellular cGMP production assay, human NPR1 expressing CHO-K1 cells (CisBio HTRF)
Assay type: cell-based
condition_parameters: cGMP production, 30 min at 37° C., 12-point dose-response from 30 μM
Quick reference: AC50 of the listed items.
readout_label: AC50 (µM)

| compound | readout_label | reported |
| --- | --- | --- |
| CC[C@H]([C@H]1CC[C@H](C(=O)O)CC1)N(C)c1nc2c(c(N[C@@H](CN3C4CCCC3CC(O)C4)c3ccccc3)n1)C[C@H](c1ccccc1)CC2 (stereo partly drawn) | AC50 | 0.427 |
| CN(c1nc2c(c(N[C@@H](CN3C4CCCC3CCC4)c3cnn(C)c3)n1)C[C@H](c1ccccc1)CC2)[C@H](C1CC1)[C@H]1CC[C@H](C(=O)O)CC1 | AC50 | 0.765 |
| CC[C@H]([C@H]1CC[C@H](C(=O)O)CC1)N(C)c1nc2c(c(N[C@@H](CN3CCC[C@H](C)C3)c3cnn(C)c3)n1)CN(C1CCCCC1)CC2 | AC50 | 1.19 |
| CC[C@@H](Nc1nc2c(c(N[C@@H](CN3CCCCC3)c3cnn(C)c3)n1)C[C@H](c1ccccc1)CC2)[C@H]1CC[C@H](C(=O)O)CC1 | AC50 | 0.198 |
| CC[C@@H](N(C)c1nc2c(c(N[C@@H](CN3CCCCCC3)c3cnn(C)c3)n1)C[C@H](c1cccc(F)c1)CC2)C12CC(C(=O)O)(C1)C2 | AC50 | 0.014 |
| CC[C@H]([C@H]1CC[C@H](C(=O)O)CC1)N(C)c1nc2c(c(N[C@@H](CN3CC4CCC3C4)c3cnn(C)c3)n1)C[C@H](c1ccccc1)CC2 (stereo partly drawn) | AC50 | 0.629 |
